measured-target: muscarinic receptors (M1 -site, pirenzepine sensitive site) (Rattus norvegicus)
Construct: from tissue; host or cells: cerebral cortex membranes of male Wistar rats
Sequence (P08482 whole entry): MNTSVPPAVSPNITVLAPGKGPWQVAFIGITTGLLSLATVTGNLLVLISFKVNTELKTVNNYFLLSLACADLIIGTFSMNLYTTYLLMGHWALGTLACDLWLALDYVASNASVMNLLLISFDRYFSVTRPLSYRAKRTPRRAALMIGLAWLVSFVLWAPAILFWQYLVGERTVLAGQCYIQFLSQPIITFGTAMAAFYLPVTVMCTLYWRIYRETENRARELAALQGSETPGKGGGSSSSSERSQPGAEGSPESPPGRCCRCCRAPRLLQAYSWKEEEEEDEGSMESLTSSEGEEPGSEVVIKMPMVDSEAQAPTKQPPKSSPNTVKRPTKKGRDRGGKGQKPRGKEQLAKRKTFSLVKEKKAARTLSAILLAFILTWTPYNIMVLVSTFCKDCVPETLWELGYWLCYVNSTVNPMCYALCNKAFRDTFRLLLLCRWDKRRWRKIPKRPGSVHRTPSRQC
assay-procedure: inhibition of ^3 HPRZ (pirenzepine, [N-methyl-^3 H]) binding to rat cerebral cortex membranes
Parameters: species or system rat (male Wistar
study-conditions: ^3 HPRZ 1.0 nM, rat cortex, 60 min. at 20° C.; read-out: ^3 HPRZ IC50 (head from b208 on: Pir IC-50)
Experimental: Furthermore the pharmacological properties of the compounds of the invention can also be illustrated by determining their capability to inhibit ^3 HPRZ (pirenzepine, [N-methyl-^3 H]) binding to rat cerebral cortex membranes. […] The final pellet is homogenized in 20 mM Hepes pH: 7.4 (100 mL per g of original tissue) and used for binding assay. […] Non-specific binding is determined in triplicate using atropine (1 ,μg/mL, final conc.) as the test substance. […]
result-type: IC50 (nM)

Example cases with answers are listed next.
C#CCCOc1nsnc1O[C@@H]1CN2CCC[C@H]1C2 (relative stereo) [Compound 186] ... 2.8
FCCCCOc1nsnc1OC1CN2CCC1CC2 (racemic) [Compound 117] ... 238
c1csc(CCOc2nsnc2O[C@@H]2CN3CCC[C@H]2C3)c1 (relative stereo) [Compound 189] ... 3.8
c1ccc2c(OCCOc3nsnc3OC3CN4CCC3CC4)cccc2c1 (racemic) [Compound 127] ... 373

[a] CCCCOc1nsnc1OCC[N+](C)(C)C [Compound 35]
[b] C1C[C@H]2CN(C1)C[C@H]2Oc1nsnc1OCC1CC1 (relative stereo) [Compound 182]
[c] CC#CCOc1nsnc1O[C@@H]1CN2CCC[C@H]1C2 (relative stereo) [Compound 168]
[d] COCCOc1nsnc1O[C@@H]1CN2CCC[C@H]1C2 (relative stereo) [Compound 183]
// ranking: key=IC50, reverse=True Record the ranking as a list of labels in the requested order.
a, d, c, b
(a: 33 nM, d: 9.9 nM, c: 6.4 nM, b: 3.5 nM)
